Values from patent US20100144758A1

# subjectOfTest: human P2X2/3 receptor (Homo sapiens, UniProt P56373+Q9UBL9)
# Sequence (Q9UBL9 1-471): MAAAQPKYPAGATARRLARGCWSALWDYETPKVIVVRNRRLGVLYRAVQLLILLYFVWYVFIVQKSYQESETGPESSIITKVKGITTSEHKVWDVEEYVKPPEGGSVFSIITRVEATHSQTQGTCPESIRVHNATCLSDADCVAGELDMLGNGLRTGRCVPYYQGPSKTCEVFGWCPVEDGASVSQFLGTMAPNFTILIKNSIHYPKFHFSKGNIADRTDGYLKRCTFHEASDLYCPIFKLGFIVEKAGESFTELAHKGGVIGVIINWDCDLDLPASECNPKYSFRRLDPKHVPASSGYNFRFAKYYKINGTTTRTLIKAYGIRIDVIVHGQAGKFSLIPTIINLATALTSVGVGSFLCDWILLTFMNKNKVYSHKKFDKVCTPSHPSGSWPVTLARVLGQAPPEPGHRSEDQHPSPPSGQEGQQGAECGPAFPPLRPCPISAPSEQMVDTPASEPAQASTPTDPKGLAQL
# Sequence (P56373 1-397): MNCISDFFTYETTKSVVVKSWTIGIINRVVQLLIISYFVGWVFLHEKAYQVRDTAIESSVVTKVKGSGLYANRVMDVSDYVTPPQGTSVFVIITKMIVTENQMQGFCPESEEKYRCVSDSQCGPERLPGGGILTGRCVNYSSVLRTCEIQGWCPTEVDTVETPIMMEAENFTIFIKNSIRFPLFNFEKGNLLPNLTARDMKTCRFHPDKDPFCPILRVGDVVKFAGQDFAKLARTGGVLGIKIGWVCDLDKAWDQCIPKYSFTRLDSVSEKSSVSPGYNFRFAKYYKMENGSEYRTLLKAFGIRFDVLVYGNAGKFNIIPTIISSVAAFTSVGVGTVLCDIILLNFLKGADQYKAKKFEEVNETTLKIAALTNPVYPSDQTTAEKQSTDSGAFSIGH
# assayMethodText: P2X2/3 FLIPR (Fluorometric Imaging Plate Reader) assay
# details: CHO-K1 cells transfected with human P2X2/3; agonist α,β-meATP 5 μM; Fluo-3 calcium fluorescence
readout: IC50

In plain terms, Cc1ccc(-n2cc(-c3ccccc3)c3c(N[C@H](C)CO)ncnc32)cc1Cl [Compound 12] has a documented IC50 of ~501 nM

====

# subjectOfTest: rat P2X3 receptor (Rattus norvegicus)
# Sequence (P49654 whole entry): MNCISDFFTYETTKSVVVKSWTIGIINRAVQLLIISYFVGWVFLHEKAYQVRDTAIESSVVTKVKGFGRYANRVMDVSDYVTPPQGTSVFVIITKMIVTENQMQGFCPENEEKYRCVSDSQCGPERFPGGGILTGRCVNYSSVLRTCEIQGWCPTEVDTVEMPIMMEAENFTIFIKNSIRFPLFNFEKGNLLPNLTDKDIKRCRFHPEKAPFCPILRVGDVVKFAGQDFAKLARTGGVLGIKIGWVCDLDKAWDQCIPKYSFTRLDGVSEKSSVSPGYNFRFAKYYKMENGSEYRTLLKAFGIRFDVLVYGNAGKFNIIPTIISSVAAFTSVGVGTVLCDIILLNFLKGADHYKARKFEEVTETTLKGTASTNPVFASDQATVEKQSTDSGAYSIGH
# assayMethodText: P2X3 FLIPR (Fluorometric Imaging Plate Reader) assay
# details: CHO-K1 cells transfected with rat P2X3; agonist α,β-meATP 1 μM; Fluo-3 calcium fluorescence
readout: IC50

In plain terms, Cc1cccc(-n2cc(-c3ccc(F)cc3)c3c(NC4CCOCC4)ncnc32)c1 [Compound 11] has a documented IC50 of ~309 nM
